Metric: melting point

Below: 3 compounds and their reported melting point.
Smi | Metric | Assay Result
Cn1ncc2c1Nc1ccccc1N(C(=O)C13CC4CC(CC(C4)C1)C3)C2 | melting point | 283 to 285 °C
Cn1ncc2c1Nc1ccccc1N(C(=O)c1ccccc1)C2 | melting point | > 300 °C
Cn1ncc2c1Nc1ccccc1N(C(=O)c1ccc(OCc3ccccc3)cc1)C2 | melting point | 207 to 209 °C

Now look at this entry.
Query string: Report melting point, nothing else, for this compound: Cn1ncc2c1Nc1ccccc1N(C(=O)c1ccc(C(F)(F)F)cc1)C2
Result string: 204 to 206 °C

----------
# Study System: vasopressin 1a receptor (V1aR) (Homo sapiens)
# Sequence (P37288 whole entry): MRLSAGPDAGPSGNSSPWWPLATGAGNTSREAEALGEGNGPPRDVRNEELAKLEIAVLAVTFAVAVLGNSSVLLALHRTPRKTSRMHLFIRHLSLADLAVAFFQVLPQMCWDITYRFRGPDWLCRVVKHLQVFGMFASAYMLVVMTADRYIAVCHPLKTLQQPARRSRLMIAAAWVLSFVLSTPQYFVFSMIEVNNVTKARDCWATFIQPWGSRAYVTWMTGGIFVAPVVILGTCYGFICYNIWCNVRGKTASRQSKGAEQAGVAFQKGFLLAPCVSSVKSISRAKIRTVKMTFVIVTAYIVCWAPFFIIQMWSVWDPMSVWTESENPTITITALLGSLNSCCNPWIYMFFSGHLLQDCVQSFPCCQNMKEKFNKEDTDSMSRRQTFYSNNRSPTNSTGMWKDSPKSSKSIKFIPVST
# Assay Method Text: IP1 accumulation assay, V1aR-expressing HEK-293 cells (agonist and antagonist assessment)
# Conditions: antagonist assessment vs AVP 25 nM (~EC70), IP1
The entries below are paired with their reported IC50.

Molecule | Metric | Assay Result
COc1cc(CN2Cc3cnn(C)c3Nc3ccccc32)cc(OC)c1 | IC50 | > 10 µM

Query string: Report IC50, nothing else, for this molecule: Cn1ncc2c1Nc1ccccc1N(S(=O)(=O)c1ccc(C(F)(F)F)cc1)C2
Result string: > 10 µM

Query string: Report IC50, nothing else, for this molecule: Cn1ncc2c1Nc1ccccc1N(C(=O)C1CCCCC1)C2
Result string: > 10 µM

Query string: Report IC50, nothing else, for this molecule: Cn1ncc2c1Nc1ccccc1N(C(=O)c1ccccc1)C2
Result string: > 10 µM

Query string: Report IC50, nothing else, for this molecule: Cn1ncc2c1Nc1ccccc1N(S(=O)(=O)c1ccc(Cl)cc1)C2
Result string: > 10 µM

Query string: Report IC50, nothing else, for this molecule: Cc1ccc2c(c1)N(C(=O)c1ccccc1)Cc1cnn(C)c1N2 [WJ07117Me]
Result string: > 10 µM
